meta.source: ChEMBL document CHEMBL2046300

Tested on: TK-10
EXPERIMENT NOTES: Antiproliferative activity against human TK10 cells after 48 hrs by SRB assay
Type: functional
STATED CONDITIONS: TK-10, 48 h
Item-by-item account of GI50
Lab book: enter the figure in µM, no units written.

Worked cases, GI50 given:
O=C(O)C1=C(Nc2ccc(CCO)cc2)C(=O)c2ccccc2C1=O    91.1
O=C(O)C1=C(Nc2ccc(Cl)cc2)C(=O)c2ccccc2C1=O    13

Now look at this one.
# input Provide measured GI50 value, entry: "O=C(O)C1=C(Nc2cccc(F)c2)C(=O)c2ccccc2C1=O"
# output 24.7
